meta.source: the supplement of paper PMC10981050

- Tested on: MARIMO
- Method Summary: cell viability relative to vehicle control; higher = less cytotoxic;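 note: after 48 h exposure read by CellTiter-Glo luminescence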
- Measurement Conditions: 10 µM; SRSF2 genotype: SRSF2 wt/wt
Structures can show the parent of a compound that is named as a salt.
Measured cell viability, listed per entry.
Write the number in % without appending the unit.

CNCCc1ccccn1
103
COC(=O)C1=CO[C@@H](O[C@@H]2O[C@H](CO)[C@@H](O)[C@H](O)[C@H]2O)[C@@H]2C(CO)=CC[C@H]12 [Geniposide]
100
CCOC(C)OCCc1ccccc1 (centres undefined)
99.3
N#Cc1cc(-c2n[nH]c(-c3ccncc3)n2)ccn1
111
C#Cc1cccc(Nc2ncnc3cc(OCCOC)c(OCCOC)cc23)c1
84.8

Note to self: cell viability of "CC1(C)OCCn2c1nc1c(N3CCOCC3)nc(-c3cnc(N)nc3)nc12" with MARIMO was 36

Bench note, MARIMO: CN(C)CCC(c1ccc(Cl)cc1)c1ccccn1 (centres undefined) [Chlorpheniramine Maleate] , cell viability reads 105

====

- Tested on: OCI-AML2
- Method Summary: cell viability relative to vehicle control; higher = less cytotoxic
- Measurement Conditions: 10 µM; SRSF2 genotype: wt/wt
Where a name gives a salt, the structure may show the parent alone.
Please note: cell viability exactly at 50% is n. Only values below 50% get y.

Some solved cases for reference:
CCCCCCCC/C=C\CCCCCCCCCCCC(=O)O
n
O=c1cc(CN2CCOCC2)occ1OCCCCCSc1ccnc2cc(C(F)(F)F)ccc12
y
O=C(Nc1cccc(Cl)c1)Nc1ncc(CCNc2ncnc3ccsc23)s1 [SNS-314 Mesylate]
y

Exam item: Strictly below 50%: is that where cell viability of CCCCN1CCCCC1C(=O)Nc1c(C)cccc1C (stereo unspecified) [Bupivacaine hydrochloride (Marcain)] sits?
Marked response: n

Exam item: Hello, is cell viability of the following compound strictly smaller than 50%? N#CC(c1ccc(Cl)cc1)c1c(Cl)cc(-n2ncc(=O)[nH]c2=O)cc1Cl (stereo unspecified)
Marked response: n

Exam item: Check if cell viability falls below 50% for "O=C(NC1(c2ccccc2)CC1)c1c(CN2CCC(N3CCCCC3)CC2)c(-c2cccc(C(F)(F)F)c2)nc2cc(Br)ccc12" .
Marked response: y

Exam item: Please indicate whether the reported cell viability of "CCc1nc(N)nc(N)c1-c1ccc(Cl)cc1" is strictly below 50%.
Marked response: n

====

- System: OCI-AML2
- Method Summary: cell viability relative to vehicle control; higher = less cytotoxic
- Measurement Conditions: 10 µM; SRSF2 genotype: P95H/wt
Value Kind: cell viability (%)
Express it in %; write the number only.

# count of solved cases: 4
CC(C)=C[C@H]1C[C@](C)(O)[C@@H]2[C@H]3CC[C@@H]4[C@@]5(C)CC[C@H](OC6OC[C@H](O)[C@H](O[C@@H]7O[C@H](CO[C@@H]8O[C@H](CO)[C@@H](O)[C@H](O)[C@H]8O)[C@@H](O)[C@H](O)[C@H]7O[C@@H]7OC[C@@H](O)[C@H](O)[C@H]7O)[C@H]6O[C@@H]6O[C@@H](C)[C@H](O)[C@@H](O)[C@H]6O)C(C)(C)[C@@H]5CC[C@@]4(C)C34CO[C@@]2(C4)O1 (stereo not given in full) [Jujuboside A]
91.6
COc1cc(C2Oc3ccc(C4Oc5cc(O)cc(O)c5C(=O)C4O)cc3OC2CO)ccc1O (stereo not given) [Isosilybin]
96.8
CNc1cccc(CCOc2ccc3c(c2)CN(CC(F)(F)F)C(=O)[C@H](CC(=O)O)C3)n1
100
COc1cc2ncnc(Oc3cccc(NC(=O)Nc4cc(C(C)(C)C(F)(F)F)on4)c3)c2cc1OC
60.3

Now let's try a different one.
Item: N[C@@H]1CN(c2c(F)cc3c(=O)c(C(=O)O)cn([C@@H]4C[C@@H]4F)c3c2Cl)CC12CC2 [Sitafloxacin hydrate] | cell viability: 102
